# EXPERIMENT: Volume of distribution at steady state in Sprague-Dawley rat at 1 mg/kg, iv measured for 24 hrs by LC-MS/MS analysis
# Type: ADME, organism-based
# CONDITION NOTES: in vivo, read-out: Vdss

| SMILES RECORD | Vd (L/kg) |
| --- | --- |
| CC(=O)N1CCC(COc2ccc(-c3ccn[nH]3)nc2)CC1 | 0.839 |

---

# EXPERIMENT: Oral bioavailability in Sprague-Dawley rat at 1 mg/kg measured for 24 hrs by LC-MS/MS analysis
# Type: ADME, organism-based
# CONDITION NOTES: in vivo

| SMILES RECORD | bioavailability |
| --- | --- |
| CC(=O)N1CCC(COc2ccc(-c3ccn[nH]3)nc2)CC1 | 97.7% |

---

# EXPERIMENT: Volume of distribution at steady state in Balb/cA mouse at 0.5 mg/kg, iv measured for 24 hrs by LC-MS/MS analysis
# Assay type: ADME, organism-based
# CONDITION NOTES: in vivo

| SMILES RECORD | Vdss |
| --- | --- |
| CN(C)S(=O)(=O)N1CCC[C@H](COc2ccc(-c3ccn[nH]3)nc2)C1 | 0.763 L/kg |
| CC(=O)N1CCC(COc2ccc(-c3ccn[nH]3)nc2)CC1 | 1.15 L/kg |

---

# EXPERIMENT: Protein binding in Sprague-Dawley rat serum at 1 ug/ml measured after 4 hrs by equilibrium dialysis method
# Type: ADME, cell-free
# CONDITION NOTES: at 1 µg/mL, read-out: PB (converted)
METRIC NAME: fraction unbound at 4 h, 1 ug/ml

| SMILES RECORD | VALUE |
| --- | --- |
| CC(=O)N1CCC(COc2ccc(-c3ccn[nH]3)nc2)CC1 | 0.348 |

---

# EXPERIMENT: Clearance in Sprague-Dawley rat at 1 mg/kg, iv measured for 24 hrs by LC-MS/MS analysis
# Type: ADME, organism-based
# CONDITION NOTES: in vivo

| SMILES RECORD | UNIT SYMBOL | clearance |
| --- | --- | --- |
| CC(=O)N1CCC(COc2ccc(-c3ccn[nH]3)nc2)CC1 | mL/min/kg | 3.77 |

---

# EXPERIMENT: Half life in Balb/cA mouse at 0.5 mg/kg, iv measured for 24 hrs by LC-MS/MS analysis
# Type: ADME, organism-based
# CONDITION NOTES: Balb/cA, in vivo

| SMILES RECORD | half-life |
| --- | --- |
| CN(C)S(=O)(=O)N1CCC[C@H](COc2ccc(-c3ccn[nH]3)nc2)C1 | 25.4 min |

---

# EXPERIMENT: Drug metabolism in mouse liver microsomes assessed as metabolized compound level at 1 uM preincubated for 5 mins followed by NADP+ addition and measured after 15 mins by LC-MS/MS analysis
# Type: ADME, Microsome
# CONDITION NOTES: time 20 min, read-out: Drug metabolism
Below, each of the compounds is paired with its reported metabolised at 0.25 h, 1 µM value.
METRIC NAME: metabolised at 0.25 h, 1 µM (%)

| SMILES RECORD | VALUE |
| --- | --- |
| CC(=O)N1CCC(COc2ccc(-c3ccn[nH]3)nc2)CC1 | 6.2 |
| CN(C)S(=O)(=O)N1CCC[C@H](COc2ccc(-c3ccn[nH]3)nc2)C1 | 13.4 |

---

# TARGET OR TEST SYSTEM: CYP2C19 (Homo sapiens)
# Sequence (P33261 whole entry): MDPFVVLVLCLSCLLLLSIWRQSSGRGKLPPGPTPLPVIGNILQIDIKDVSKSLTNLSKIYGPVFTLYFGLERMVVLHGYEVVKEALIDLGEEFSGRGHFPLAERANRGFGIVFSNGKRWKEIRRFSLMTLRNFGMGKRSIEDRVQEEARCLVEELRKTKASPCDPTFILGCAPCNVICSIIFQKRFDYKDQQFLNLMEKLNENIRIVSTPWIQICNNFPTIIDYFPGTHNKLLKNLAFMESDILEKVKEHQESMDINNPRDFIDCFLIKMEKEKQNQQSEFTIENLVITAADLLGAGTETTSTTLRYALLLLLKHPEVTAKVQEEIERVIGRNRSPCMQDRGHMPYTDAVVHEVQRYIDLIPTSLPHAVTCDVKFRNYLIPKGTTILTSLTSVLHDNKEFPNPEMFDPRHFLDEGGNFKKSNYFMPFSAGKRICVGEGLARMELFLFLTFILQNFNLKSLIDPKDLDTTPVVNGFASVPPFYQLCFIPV
# EXPERIMENT: Inhibition of CYP2C19 in human liver microsomes at 10 uM using mephenytoin as substrate preincubated for 5 mins followed by NADPH generating system addition and measured after 5 to 10 mins by LC-MS/MS analysis
# Format: ADME, Microsome
# CONDITION NOTES: probe mephenytoin, time 10-15 min
Mark f for inhibition at 10 µM values under 20%, and t for everything at or above.

| SMILES RECORD | LABEL VALUE |
| --- | --- |
| Fc1ccc(COc2ccc(-c3ccn[nH]3)nc2)cc1 | t |
| CS(=O)(=O)c1cccc(COc2ccc(-c3ccn[nH]3)nc2)c1 | f |
| Cc1ncsc1CCOc1ccc(-c2ccn[nH]2)cc1 | t |
| CS(=O)(=O)c1ccc(COc2ccc(-c3ccn[nH]3)nc2)cc1 | f |
| Cc1ncsc1CCOc1ccc(-c2ccn[nH]2)nc1 | t |
| CC(=O)N1CCC(COc2ccc(-c3ccn[nH]3)nc2)CC1 | f |
| N#Cc1cccc(COc2ccc(-c3ccn[nH]3)nc2)c1 | t |
| Cc1ncsc1CCOc1cnc(-c2ccn[nH]2)nc1 | t |
| N#Cc1ccc(COc2ccc(-c3ccn[nH]3)nc2)cc1 | t |

---

# EXPERIMENT: Lipophilicity, log D of the compound at pH 7.4 by HPLC analysis
# Format: physicochemical
# CONDITION NOTES: buffer

| SMILES RECORD | logD |
| --- | --- |
| CS(=O)(=O)c1ccc(COc2ccc(-c3ccn[nH]3)nc2)cc1 | 1.1 |
| CS(=O)(=O)N1CCC[C@H](COc2ccc(-c3ccn[nH]3)nc2)C1 | 1.21 |
| CCOC(=O)N1CCN(CCOc2ccc(-c3ccn[nH]3)cc2)CC1 | 1.82 |
| Fc1ccc(COc2ccc(-c3ccn[nH]3)nc2)cc1 | 2.27 |
| CS(=O)(=O)N1CCC(COc2ccc(-c3ccn[nH]3)nc2)CC1 | 1.11 |
| Cc1ncsc1CCOc1cnc(-c2ccn[nH]2)nc1 | 0.7 |
| Cc1ncsc1CCOc1ccc(-c2ccn[nH]2)cc1 | 1.84 |
| CS(=O)(=O)c1cc(O)cc(COc2ccc(-c3ccn[nH]3)nc2)c1 | 0.72 |
| Cc1ncsc1CCOc1ccc(-c2ccn[nH]2)nc1 | 1.05 |
| CC(=O)N1CCC[C@H](COc2ccc(-c3ccn[nH]3)nc2)C1 | 0.78 |
| N#Cc1ccc(COc2ccc(-c3ccn[nH]3)nc2)cc1 | 1.79 |
| CC(=O)N1CCC[C@@H](COc2ccc(-c3ccn[nH]3)nc2)C1 | 0.78 |
| N#Cc1cccc(COc2ccc(-c3ccn[nH]3)nc2)c1 | 1.79 |
| CS(=O)(=O)c1cccc(COc2ccc(-c3ccn[nH]3)nc2)c1 | 1.13 |
| CC(=O)N1CCC(COc2ccc(-c3ccn[nH]3)nc2)CC1 | 0.64 |
| CS(=O)(=O)N1CCC[C@@H](COc2ccc(-c3ccn[nH]3)nc2)C1 | 1.21 |

---

# EXPERIMENT: Thermodynamic solubility of the compound in phosphate buffer at pH 6.8 incubated for 24 hrs by HPLC analysis
# Format: physicochemical
# CONDITION NOTES: read-out: Therm_solubility
METRIC NAME: solubility thermodynamic at 24 h

| SMILES RECORD | METRIC NAME | VALUE |
| --- | --- | --- |
| CS(=O)(=O)N1CCC[C@H](COc2ccc(-c3ccn[nH]3)nc2)C1 | solubility thermodynamic at 24 h | 98.5 µg/mL |
| CS(=O)(=O)c1cc(O)cc(COc2ccc(-c3ccn[nH]3)nc2)c1 | solubility thermodynamic at 24 h | 4.2 µg/mL |
| Cc1ncsc1CCOc1cnc(-c2ccn[nH]2)nc1 | solubility thermodynamic at 24 h | 67.6 µg/mL |
| N#Cc1ccc(COc2ccc(-c3ccn[nH]3)nc2)cc1 | solubility thermodynamic at 24 h | 9.2 µg/mL |
| CC(=O)N1CCC[C@H](COc2ccc(-c3ccn[nH]3)nc2)C1 | solubility thermodynamic at 24 h | > 1340 µg/mL |
| Cc1ncsc1CCOc1ccc(-c2ccn[nH]2)cc1 | solubility thermodynamic at 24 h | 2.4 µg/mL |
| CS(=O)(=O)c1ccc(COc2ccc(-c3ccn[nH]3)nc2)cc1 | solubility thermodynamic at 24 h | 8.7 µg/mL |
| CS(=O)(=O)N1CCC(COc2ccc(-c3ccn[nH]3)nc2)CC1 | solubility thermodynamic at 24 h | 1.1 µg/mL |
| N#Cc1cccc(COc2ccc(-c3ccn[nH]3)nc2)c1 | solubility thermodynamic at 24 h | 9.7 µg/mL |
| Fc1ccc(COc2ccc(-c3ccn[nH]3)nc2)cc1 | solubility thermodynamic at 24 h | 7.3 µg/mL |
| CS(=O)(=O)N1CCC[C@@H](COc2ccc(-c3ccn[nH]3)nc2)C1 | solubility thermodynamic at 24 h | 102 µg/mL |
| CC(=O)N1CCC[C@@H](COc2ccc(-c3ccn[nH]3)nc2)C1 | solubility thermodynamic at 24 h | 1050 µg/mL |
| CS(=O)(=O)c1cccc(COc2ccc(-c3ccn[nH]3)nc2)c1 | solubility thermodynamic at 24 h | 9.3 µg/mL |
| Cc1ncsc1CCOc1ccc(-c2ccn[nH]2)nc1 | solubility thermodynamic at 24 h | 72.7 µg/mL |
| CC(=O)N1CCC(COc2ccc(-c3ccn[nH]3)nc2)CC1 | solubility thermodynamic at 24 h | 112 µg/mL |
